Give TGI for every item shown.
tested on: COLO 205 colon; experiment: NCI tumour cell line growth inhibition, 48 h
Supply the numeric figure in µM, leaving out any unit text.

// lookup TGI for Clc1ccc(/C=C/c2ccc3ccccc3n2)cc1
6.73

Then COc1ccc(/C=C2\CCC(CCN(C)C)(C3=CCCC3)C2=O)cc1 (stereo not drawn) ?
25.9

// repeat for CC(C)(C)OC(=O)N1NC(c2ccccc2)CC1c1ccccc1 (stereo not drawn) and report
41.2

Then this molecule: COc1cc([C@@H]2c3cc4c(cc3[C@H](OC(C)=O)[C@H]3COC(=O)[C@@H]23)OCO4)cc(OC)c1OC
0.678

And Cn1c(=Nc2ccc(Cl)cc2)sc2ccccc21 ?
81.3

Lookup CC(O)c1cc2c(s1)C(=O)c1c(C(C)O)csc1C2=O (stereo not drawn)
2.58

Now try O=C1c2cccnc2-c2nc(-c3cccnc3)cc3c2c1nc1ccccc13 .
10.9

Same question for CC(NC(=O)Cc1ccc(C(F)(F)P(=O)(OCc2ccc([N+](=O)[O-])o2)N(C)CCCCCl)cc1)c1ccc(OCC2CCCCC2)c(C(N)=O)c1 (stereo not drawn) please.
11.2

Next entry: CSc1ncnc2c1ncn2CC(=O)C1CCC2C3CCC4=CC(=O)CCC4(C)C3CCC12C (stereo not drawn)
14.4

Same question for O=c1cc(-c2ccccc2)[nH]c2cc(F)cc(F)c12 please.
38.9

Another molecule to check: Clc1ccc(-c2cc(-c3cc4cc(Br)ccc4nc3Cl)on2)cc1
15.4

Check CC(/C=C/C(O)=C1/C(=O)CNC1=O)=C\[C@@H](C)[C@H]1O[C@@]2(C)O[C@H](C(=O)[C@@H]3O[C@@]32C)[C@@H]1C too.
43.6

How about this molecule: CC(C)(C)[Si](C)(C)OC1[C@@H](CNC(N)=O)O[C@@H](n2cnc3c(NC(=O)Nc4ccccc4)ncnc32)[C@H]1O[Si](C)(C)C(C)(C)C (stereo partly drawn)
2.7

Field entry: C=C1C[C@@H](O)[C@@H](Br)C(C)(C)[C@@]12C=CC(=O)CC2
4.34

Further, for COC(=O)c1c(CC(Cc2ccc3c(c2)CCCC3)C(=O)O)ccc2c1CCCC2 (stereo not drawn) ?
32.9

Queued: COc1cc(OCc2cccc(-c3ccccc3)c2C)cc(OC)c1CN1CCCCC1C(=O)NCCOCCOCCN (stereo not drawn)
3.7

Can you check COc1cc(C2=NN(C(C)=O)C(c3cc(OC)c(OC)c(OC)c3)C2)ccc1O (stereo not drawn) next?
1.05

// query: O=C1/C(=C\c2ccc(Br)cc2)CCCc2ccccc21
31.8

Here is the next molecule: Cc1ccc(-c2c(-c3ccccc3)[nH]c(C)c2C(=O)ONC(=O)c2ccccc2)cc1
25.7

Continue with C=C1C(=O)C23[C@H](O)C1CC[C@H]2[C@]12COC3(O)[C@@H](O)[C@@H]1C(C)(C)CC[C@@H]2O
2.14

Queued: CCOc1cc(/C=C/C(=O)C(C(=O)/C=C/c2ccc(OC(=O)CNc3nc4ccccc4[nH]3)c(OCC)c2)C(=O)CNc2nc3ccccc3[nH]2)ccc1OC(=O)CNc1nc2ccccc2[nH]1
4.61

And then CC(=O)C(C(=O)c1ccc(C)cc1)[C@H]1OC(C)(C)O[C@H]1[C@H]1COC(C)(C)O1 (stereo partly drawn) , what is it?
18.7
